targetDesc: hTRPC4 (Homo sapiens, UniProt Q9UBN4)
Construct: The cDNAs for various full-length ion channels were subcloned into pcDNA5/TO; M1R co-expressed in the calcium assay, M2R in patch clamp
Sequence (Q9UBN4 1-893 isoform Q9UBN4-2): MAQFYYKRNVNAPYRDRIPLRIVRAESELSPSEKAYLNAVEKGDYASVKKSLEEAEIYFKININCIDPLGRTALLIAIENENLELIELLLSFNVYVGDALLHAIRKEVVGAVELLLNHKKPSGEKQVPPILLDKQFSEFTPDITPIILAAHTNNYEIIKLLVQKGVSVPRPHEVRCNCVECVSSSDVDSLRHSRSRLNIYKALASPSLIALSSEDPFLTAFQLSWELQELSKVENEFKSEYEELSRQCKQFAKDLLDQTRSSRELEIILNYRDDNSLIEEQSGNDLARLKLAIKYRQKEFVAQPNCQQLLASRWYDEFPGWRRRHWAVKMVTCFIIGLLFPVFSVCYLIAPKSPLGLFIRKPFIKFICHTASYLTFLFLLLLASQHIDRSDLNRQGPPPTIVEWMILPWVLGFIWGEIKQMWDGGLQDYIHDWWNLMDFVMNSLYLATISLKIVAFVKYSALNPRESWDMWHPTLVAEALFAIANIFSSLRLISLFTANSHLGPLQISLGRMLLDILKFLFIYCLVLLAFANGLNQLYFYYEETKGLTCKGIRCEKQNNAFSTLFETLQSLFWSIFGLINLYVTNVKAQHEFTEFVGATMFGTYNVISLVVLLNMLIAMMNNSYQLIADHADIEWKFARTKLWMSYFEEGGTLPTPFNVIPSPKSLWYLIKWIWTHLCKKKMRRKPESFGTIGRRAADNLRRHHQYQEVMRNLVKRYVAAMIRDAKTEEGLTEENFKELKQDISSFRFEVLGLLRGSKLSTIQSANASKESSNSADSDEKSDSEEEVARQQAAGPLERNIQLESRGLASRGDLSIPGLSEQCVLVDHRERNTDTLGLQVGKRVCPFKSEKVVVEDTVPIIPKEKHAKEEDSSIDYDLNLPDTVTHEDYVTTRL
assayInfo: Whole-cell manual patch clamp
particulars: 10 µM carbachol /M1R
endpointName: IC50

Inquiry: # get_value(readout= IC50, system= hTRPC4 (Homo sapiens, UniProt Q9UBN4)) for Cn1c(=O)n(CCCO)c(=O)c2c1nc(Oc1cccc(OC(F)(F)F)c1)n2Cc1ccc(Cl)cc1
Reply text: ~0.17 nM
